# protocol: in vivo
# stated conditions: C57BL/6J (Ces1c knockout), mouse, sc, 25 mg/kg
measurement type: half-life at 144 h (min)
Just the number please, in min, no unit attached.

Lookup result for `CCC(CC)COC(=O)[C@H](C)N[P@](=O)(OC[C@H]1O[C@@](C#N)(c2ccc3c(N)ncnn23)[C@H](O)[C@@H]1O)Oc1ccccc1` ; measured half-life at 144 h: 25

---

# Test system: Middle East respiratory syndrome-related coronavirus
# protocol: Antiviral activity against […] infected in HAE cells incubated for 48 hrs by qRT-PCR analysis
# Type: functional, organism-based
measurement type: EC50
Give the number first and the unit second.

Param item: O=c1nc(NO)ccn1[C@@H]1O[C@H](CO)[C@@H](O)[C@H]1O [N-HYDROXYCYTIDINE] ; param system: Middle East respiratory syndrome-related coronavirus; output EC50: 24 nM
